molecular target: p110β/p85α (Homo sapiens); test: Transcreener KINASE Assay, kinase inhibition of p110β/p85α; type: biochemical; details: 1 uM test compound
Sequence (P42338 whole entry): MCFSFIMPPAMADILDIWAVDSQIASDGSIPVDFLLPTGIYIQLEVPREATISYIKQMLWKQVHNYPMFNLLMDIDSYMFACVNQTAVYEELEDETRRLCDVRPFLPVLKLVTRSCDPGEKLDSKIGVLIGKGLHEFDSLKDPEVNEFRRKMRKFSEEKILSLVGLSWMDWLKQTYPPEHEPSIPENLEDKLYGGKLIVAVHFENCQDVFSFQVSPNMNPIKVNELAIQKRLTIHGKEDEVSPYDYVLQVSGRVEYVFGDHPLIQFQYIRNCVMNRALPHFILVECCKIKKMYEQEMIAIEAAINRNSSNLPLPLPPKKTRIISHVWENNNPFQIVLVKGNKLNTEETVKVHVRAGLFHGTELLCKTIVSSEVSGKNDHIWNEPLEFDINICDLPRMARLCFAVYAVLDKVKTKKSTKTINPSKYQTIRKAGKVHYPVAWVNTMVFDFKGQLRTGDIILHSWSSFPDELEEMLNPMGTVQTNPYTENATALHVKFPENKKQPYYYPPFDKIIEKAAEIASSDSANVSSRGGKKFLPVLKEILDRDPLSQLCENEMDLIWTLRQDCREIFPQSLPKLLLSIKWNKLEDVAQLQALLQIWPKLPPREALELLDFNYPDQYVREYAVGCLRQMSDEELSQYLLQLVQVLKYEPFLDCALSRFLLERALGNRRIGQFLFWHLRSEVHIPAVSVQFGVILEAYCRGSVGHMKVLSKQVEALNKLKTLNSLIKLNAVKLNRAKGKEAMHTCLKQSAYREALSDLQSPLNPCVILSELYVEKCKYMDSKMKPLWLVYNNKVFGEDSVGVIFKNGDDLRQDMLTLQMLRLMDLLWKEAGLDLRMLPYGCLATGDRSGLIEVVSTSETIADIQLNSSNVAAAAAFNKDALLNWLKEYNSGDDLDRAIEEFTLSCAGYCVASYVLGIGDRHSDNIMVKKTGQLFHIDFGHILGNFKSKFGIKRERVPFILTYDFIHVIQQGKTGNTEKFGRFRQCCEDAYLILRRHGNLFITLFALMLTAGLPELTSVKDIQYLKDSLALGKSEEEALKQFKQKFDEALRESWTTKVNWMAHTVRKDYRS
Sequence (P27986 2-724 partner): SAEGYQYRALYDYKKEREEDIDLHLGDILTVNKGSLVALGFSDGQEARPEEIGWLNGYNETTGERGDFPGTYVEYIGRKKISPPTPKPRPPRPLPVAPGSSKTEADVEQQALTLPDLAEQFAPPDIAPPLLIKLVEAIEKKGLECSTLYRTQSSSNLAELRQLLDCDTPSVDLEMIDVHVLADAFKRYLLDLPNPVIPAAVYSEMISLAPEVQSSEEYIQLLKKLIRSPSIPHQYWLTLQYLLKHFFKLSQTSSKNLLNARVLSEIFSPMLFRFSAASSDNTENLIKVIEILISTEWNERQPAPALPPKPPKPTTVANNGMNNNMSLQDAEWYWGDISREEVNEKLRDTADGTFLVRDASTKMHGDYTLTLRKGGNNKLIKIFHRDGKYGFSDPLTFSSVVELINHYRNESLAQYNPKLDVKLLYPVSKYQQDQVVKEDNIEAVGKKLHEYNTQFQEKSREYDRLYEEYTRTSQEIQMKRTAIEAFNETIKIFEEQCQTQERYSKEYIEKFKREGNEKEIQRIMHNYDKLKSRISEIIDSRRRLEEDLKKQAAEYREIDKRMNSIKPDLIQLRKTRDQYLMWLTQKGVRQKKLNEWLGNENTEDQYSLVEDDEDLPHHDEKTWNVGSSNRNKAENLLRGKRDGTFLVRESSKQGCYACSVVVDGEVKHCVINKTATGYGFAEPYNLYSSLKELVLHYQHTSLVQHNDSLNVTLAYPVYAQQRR
Value Type: PI3Kβ IH % @ 1 uM (%)

{"columns": ["Compound", "Tested On", "Value"],
 "data": [
  ["CC(Nc1ncnc2[nH]cc(S(C)(=O)=O)c12)c1cc2ncc(Cl)n2c(=O)n1-c1ccccc1 (stereo not drawn) [Compound 286]", "p110β/p85α (Homo sapiens)", 25.2],
  ["Nc1ncnc(N2CC[C@H]2c2nn3ccc(Cl)c3c(=O)n2-c2ccccc2)c1Cl [Compound 30]", "p110β/p85α (Homo sapiens)", 51.3],
  ["O=c1c2c(Cl)ccn2nc([C@@H]2CCCN2c2ncnc3[nH]nnc23)n1-c1ccccc1 [Compound 220]", "p110β/p85α (Homo sapiens)", 25.1],
  ["C[S@+]([O-])c1c[nH]c2ncnc(N3CCC[C@H]3c3nn4ccc(Cl)c4c(=O)n3-c3cccc(F)c3)c12 (single isomer, unassigned) [Compound 386]", "p110β/p85α (Homo sapiens)", 76.8],
  ["N#Cc1c(N)ncnc1N1CC(F)(F)C[C@H]1c1nn2ccc(Cl)c2c(=O)n1-c1ccccc1 [Compound 141]", "p110β/p85α (Homo sapiens)", 28.2],
  ["CC(=O)c1cnc(N)nc1N1CCC1c1nn2ccc(Cl)c2c(=O)n1-c1ccccn1 (stereo not drawn) [Compound 474]", "p110β/p85α (Homo sapiens)", 48.3],
  ["Nc1ccc(-c2n[nH]c3ncnc(N4CCC[C@H]4c4nn5ccc(Cl)c5c(=O)n4-c4ccccc4)c23)cn1 [Compound 167]", "p110β/p85α (Homo sapiens)", 42.3],
  ["N#Cc1c[nH]c2ncnc(N3CC[C@H]3c3nn4ccc(Cl)c4c(=O)n3-c3ccc(F)cc3)c12 [Compound 37]", "p110β/p85α (Homo sapiens)", 30.6],
  ["N#Cc1c[nH]c2ncnc(N3CC[C@H]3c3nn4ccc(Cl)c4c(=O)n3CC3CC3)c12 [Compound 371]", "p110β/p85α (Homo sapiens)", 17.5],
  ["CC(=O)c1c[nH]c2ncnc(NC(C)c3cn4ccc(Cl)c4c(=O)n3-c3ccccc3)c12 (stereo not drawn) [Compound 272]", "p110β/p85α (Homo sapiens)", 76.9],
  ["N#Cc1c[nH]c2ncnc(N3CC[C@H]3c3nn4ccc(C(F)(F)F)c4c(=O)n3-c3ccccc3)c12 [Compound 488]", "p110β/p85α (Homo sapiens)", 29.1],
  ["CC(Nc1ncnc(N)c1C#N)c1cc2c(Cl)cc(Cl)n2c(=O)n1-c1ccccc1 (stereo not drawn) [Compound 126]", "p110β/p85α (Homo sapiens)", 90.9],
  ["N#Cc1cccc(-n2c([C@@H]3CCCN3c3ncnc4[nH]cc(C#N)c34)nn3ccc(Cl)c3c2=O)c1 [Compound 39]", "p110β/p85α (Homo sapiens)", 20.7],
  ["O=c1c2c(Cl)ccn2nc([C@@H]2CCN2c2ncnc3[nH]cc(F)c23)n1-c1ccccc1 [Compound 148]", "p110β/p85α (Homo sapiens)", 19.5],
  ["Cc1nc(N)nc(N2C[C@H](C)[C@H]2c2nn3ccc(F)c3c(=O)n2-c2cccc(F)c2)c1C#N [Compound 462]", "p110β/p85α (Homo sapiens)", 80.5]
]}
